test system: T-Rex 293 cell line SC3 cells lacking increased expression of androgen receptor protein; assay: Cellular growth inhibition assay, T-Rex 293 SC3 cells without doxycycline (CellTiter-Glo, 72 hours); type: cell-based; conditions: 72 h, T-Rex 293 cell line SC3 cells not exposed to doxycycline (lacking increased androgen receptor expression)
Each entry below carries its reported GI50.

compound	measurement.target	GI50
Cc1sc2c(c1C)C(c1ccc(N3CC(CC4CCCN(c5ccc(C(=O)N[C@H]6CC[C@H](Oc7ccc(C#N)c(Cl)c7)CC6)nn5)C4)C3)cc1)=NC1(CC1)c1nnc(C)n1-2 (stereo partly shown)	T-Rex 293 cell line SC3 cells lacking increased expression of androgen receptor protein	< 500 nM
Cc1sc2c(c1C)C(c1ccc(CCCC3CCN(c4ccc(C(=O)N[C@H]5CC[C@H](Oc6ccc(C#N)c(Cl)c6)CC5)nn4)CC3)cc1)=N[C@@H](C)c1nnc(C)n1-2	T-Rex 293 cell line SC3 cells lacking increased expression of androgen receptor protein	< 500 nM
[2H]C([2H])(c1ccc(C2=N[C@@H](Cc3ncco3)c3nnc(C)n3-c3sc(C)c(C)c32)cc1)N1CC2(CCCN(c3ccc(C(=O)N[C@H]4CC[C@H](Oc5ccc(C#N)c(Cl)c5)CC4)nn3)C2)C1	T-Rex 293 cell line SC3 cells lacking increased expression of androgen receptor protein	500 to 1500 nM
Cc1sc2c(c1C)C(c1ccc([C@H]3CC[C@@H](N4CCCN(c5ccc(C(=O)N[C@H]6CC[C@H](Oc7ccc(C#N)c(Cl)c7)CC6)nn5)CC4)CC3)cc1)=N[C@@H](Cc1ncco1)c1nnc(C)n1-2	T-Rex 293 cell line SC3 cells lacking increased expression of androgen receptor protein	> 3000 nM
Cc1sc2c(c1C)C(c1ccc(O[C@H]3C[C@@H](N(C(C)C)C4CCN(c5ccc(C(=O)N[C@H]6CC[C@H](Oc7ccc(C#N)c(Cl)c7)CC6)nn5)CC4)C3)cc1)=N[C@@H](Cc1ncco1)c1nnc(C)n1-2	T-Rex 293 cell line SC3 cells lacking increased expression of androgen receptor protein	< 500 nM
Cc1sc2c(c1C)C(c1ccc(CC3CC4(CCCN(c5ccc(C(=O)N[C@H]6CC[C@H](Oc7ccc(C#N)c(Cl)c7)CC6)nn5)C4)C3)cc1)=NCc1nnc(C)n1-2 (stereo partly shown)	T-Rex 293 cell line SC3 cells lacking increased expression of androgen receptor protein	> 3000 nM
Cc1sc2c(c1C)C(c1ccc(O[C@H]3CC[C@@]4(CCCN(c5ccc(C(=O)N[C@H]6CC[C@H](Oc7ccc(C#N)c(Cl)c7)CC6)nn5)C4)C3)cc1)=N[C@@H](Cc1ncco1)c1nnc(C)n1-2	T-Rex 293 cell line SC3 cells lacking increased expression of androgen receptor protein	< 500 nM
Cc1sc2c(c1C)C(c1ccc(N3CCN(CC4CCN(c5ccc(C(=O)N[C@H]6CC[C@H](Oc7ccc(C#N)c(Cl)c7)CC6)nn5)CC4)CC3)cc1)=N[C@@H](C)c1nnc(C)n1-2	T-Rex 293 cell line SC3 cells lacking increased expression of androgen receptor protein	> 3000 nM
CC1=NN=C2C1c1sc(C)c(C)c1C(c1ccc(C3CCC4(CC3)CCN(c3ccc(C(=O)N[C@H]5CC[C@H](Oc6ccc(C#N)c(Cl)c6)CC5)nn3)CC4)cc1)=N[C@@H]2Cc1ncco1 (stereo partly shown)	T-Rex 293 cell line SC3 cells lacking increased expression of androgen receptor protein	< 500 nM
Cc1sc2c(c1C)C(c1ccc(CCC3CC4(CCCN(c5ccc(C(=O)N[C@H]6CC[C@H](Oc7ccc(C#N)c(Cl)c7)CC6)nn5)C4)C3)cc1)=N[C@@H](Cc1ncco1)c1nnc(C)n1-2 (stereo partly shown)	T-Rex 293 cell line SC3 cells lacking increased expression of androgen receptor protein	< 500 nM
Cc1sc2c(c1C)C(c1ccccc1OCCC1CCN(c3ccc(C(=O)N[C@H]4CC[C@H](Oc5ccc(C#N)c(Cl)c5)CC4)nn3)CC1)=N[C@@H](C)c1nnc(C)n1-2	T-Rex 293 cell line SC3 cells lacking increased expression of androgen receptor protein	> 3000 nM
CCNC(=O)C[C@@H]1N=C(c2ccc(OCCC3CCN(c4ccc(C(=O)N[C@H]5CC[C@H](Oc6ccc(C#N)c(Cl)c6)CC5)nn4)CC3)cc2)c2c(sc(C)c2C)-n2c(C)nnc21	T-Rex 293 cell line SC3 cells lacking increased expression of androgen receptor protein	< 500 nM
CCNC(=O)C[C@@H]1N=C(c2ccc(N(C)C3CC(OC4CCN(c5ncc(C(=O)N[C@H]6CC[C@H](Oc7ccc(C#N)c(Cl)c7)CC6)cn5)CC4)C3)cc2)c2c(sc(C)c2C)-n2c(C)nnc21 (stereo partly shown)	T-Rex 293 cell line SC3 cells lacking increased expression of androgen receptor protein	500 to 1500 nM
Cc1sc2c(c1C)C(c1ccc(OC[C@H]3C[C@@]4(CCCN(c5ccc(C(=O)N[C@H]6CC[C@H](Oc7ccc(C#N)c(Cl)c7)CC6)nn5)C4)C3)cn1)=N[C@@H](Cc1ncco1)c1nnc(C)n1-2	T-Rex 293 cell line SC3 cells lacking increased expression of androgen receptor protein	< 500 nM
Cc1sc2c(c1C)C(c1ccccc1OC1CC3(CCN(c4ccc(C(=O)N[C@H]5CC[C@H](Oc6ccc(C#N)c(Cl)c6)CC5)nn4)CC3)C1)=N[C@@H](C)c1nnc(C)n1-2	T-Rex 293 cell line SC3 cells lacking increased expression of androgen receptor protein	> 3000 nM
Cc1sc2c(c1C)C(c1ccc(CC[C@H]3CC[C@@]4(CCCN(c5ccc(C(=O)N[C@H]6CC[C@H](Oc7ccc(C#N)c(Cl)c7)CC6)nn5)C4)C3)cc1)=N[C@H](Cc1ncco1)c1nnc(C)n1-2	T-Rex 293 cell line SC3 cells lacking increased expression of androgen receptor protein	< 500 nM
